These entries and their values trace back to the supplement of paper PMC6757056.

normalized RNA/DNA level without ligand (log10) reference
B1: library; a variant is named by its letters at N, in order (parent)
chain: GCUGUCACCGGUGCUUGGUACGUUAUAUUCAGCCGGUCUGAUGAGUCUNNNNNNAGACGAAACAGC

Variants of: B1
assay_text: normalized RNA/DNA level without ligand (relative to sTRSVctl = 100) (log10 (% of sTRSVctl)); HEK293T overexpressing SLC46A1; higher = less ribozyme self-cleavage, higher mRNA level
condition_notes: without (6R,S)-folinic acid; ligand present: no
measured_endpoint: normalized RNA/DNA level without ligand (log10)

{"columns": ["sequence_variant", "numeric_readout"],
 "data": [
  ["CCCCUU", 2.06],
  ["CCUCGC", 2.08],
  ["GUAACU", 2.03],
  ["CGUCGC", 2.06],
  ["GGGACU", 2.02],
  ["CUUGCG", 2.03],
  ["CGCCCU", 2.09],
  ["AAGUUC", 2.03],
  ["AGCCUA", 2.02],
  ["CAAUUC", 2.02],
  ["AGAAUU", 2],
  ["GGGGUG", 2],
  ["GUGCGG", 1.97],
  ["AGAUCU", 2.02],
  ["CGAAAG", 1.97],
  ["AACUAA", 1.97],
  ["GAAUGA", 1.99],
  ["AAUUGA", 1.97],
  ["GGAGGG", 1.98],
  ["GCAGUC", 2.05],
  ["UCCAUU", 2.03],
  ["AGACUU", 2.02],
  ["UAAGAG", 1.67],
  ["AGGUAG", 1.91],
  ["AGUUUU", 2.01],
  ["CCGCUG", 2.05],
  ["CCGCGU", 2.05],
  ["CAGUAG", 1.93],
  ["CCGUAU", 2.02],
  ["GGCUGG", 2.06],
  ["CUGUUG", 2.04],
  ["ACAACG", 1.99],
  ["UUACUU", 1.99],
  ["AUCGAC", 2.04],
  ["GCUAUU", 2.05],
  ["UUGUAC", 1.99],
  ["CCACAC", 1.99],
  ["UUCGGG", 1.86],
  ["AGCCGC", 2.04],
  ["UUCGUC", 2.1],
  ["CGGACU", 2.04],
  ["UCUCUG", 1.89],
  ["GGCCGG", 2.08],
  ["GGGUUC", 2.03],
  ["CCUGCG", 2.01],
  ["GAUGGA", 1.99],
  ["CGUGAU", 1.96],
  ["CCUACA", 2.02],
  ["GGGAGA", 2.02],
  ["CGGUUC", 2.02],
  ["UAUACU", 1.98],
  ["GAAAUU", 2.03],
  ["ACCAUU", 2.02],
  ["AUUAAA", 1.97],
  ["CGUGGA", 1.99],
  ["UUCGCU", 1.98],
  ["UAGAGA", 1.81],
  ["GACCGA", 2.09],
  ["ACGGCA", 2.02],
  ["AUCUUU", 2.07],
  ["AGGCAU", 1.98],
  ["UCAGAC", 2.05],
  ["UUGUAG", 1.87],
  ["CAUUGU", 2.01],
  ["UUUUAG", 1.84],
  ["CGAUGU", 1.98],
  ["UGUAUA", 1.95],
  ["UUUAUU", 1.99],
  ["AUCUAA", 2],
  ["UGUGCC", 2.02],
  ["GCGCGC", 2.05],
  ["UUGUCG", 1.94],
  ["GGGUAU", 2.01],
  ["UUUUGA", 1.98],
  ["AGGCGC", 2.06],
  ["CUGUGG", 1.96],
  ["CUUUUU", 1.99],
  ["GUGGCU", 2.05],
  ["CACGGG", 1.91],
  ["UGCUGA", 2.02],
  ["CACUCG", 2.01],
  ["ACUUGG", 1.9],
  ["ACGGUG", 1.92],
  ["UUGUUU", 2.06],
  ["AAGUUU", 2.01],
  ["UACCAC", 1.97],
  ["UCUCCA", 2.02],
  ["UUACGC", 1.99],
  ["AAGACG", 1.92],
  ["UGGAUG", 1.68],
  ["AUCCCU", 2.04]
]}
